- assay notes: Stability in human serum (radio-HPLC, LC-MS)
- Format: in vitro ADME
- experimental conditions: human, serum, 37 °C, one-phase decay
Where a SMILES comes first, the peptide text is derived from it. The star is where a group is joined. X1 = O=C(O)CN1CCN(CC(=O)O)CCN([C@H](CCC(=O)*)C(=O)O)CC1
readout label: half-life
In your response, the unit should come after the numeric value.

Consider the molecule shown here: CC[C@H](C)[C@H](NC(=O)[C@H](CC(N)=O)NC(=O)[C@@H]1CCCN1C(=O)[C@@H]1CCCN1C(=O)[C@H](CCCNC(=N)N)NC(=O)[C@H](CC(=O)O)NC(=O)[C@H](CC(N)=O)NC(=O)[C@H](CO)NC(=O)CC[C@H](C(=O)O)N1CCN(CC(=O)O)CCN(CC(=O)O)CC1)C(=O)N[C@@H](CC(C)C)C(=O)N[C@@H](CCC(N)=O)C(=O)N[C@@H](CCCCN)C(=O)N[C@@H](CCCNC(=N)N)C(=O)O [[^67Ga]Ga-NODA-GA-TJ12P2(K^11), metal not drawn] (X1-SNDRPPNILQKR-OH) What is its recorded half-life?
17.4 min

Data origin: paper PMC12655185
